System: SW1271 complex spheroids with HUVEC/MSC, growth, % test/control
Assay: Anticancer human tumor SW1271 cell line growth inhibition [AhR];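 also: spheroids exposed to agents for 7 days before readout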
Details: second compound 0.316 µM; first compound 0.003 µM; active compounds read low
Text: Multicellular complex tumor spheroid response to aryl hydrocarbon receptor antagonists in combination with a variety of drugs and investigational agents in selected tumor cell lines […] Compounds. […] If the clinical Cmax for an agent had not been determined, the highest concentration tested was 10 microM (Table 1). […]
ENDPOINT LABEL: viability, T/C

Guide cases for viability, T/C, answers given:
[
  {
    "COMPOUND": "Nc1ncn(C2CC(O)C(CO)S2)c(=O)n1 (stereo not drawn) + Cc1cncc(-c2nc(NCCc3c[nH]c4ccccc34)c3ncn(C(C)C)c3n2)c1",
    "viability, T/C": "84.2%"
  },
  {
    "COMPOUND": "CCc1c2c(nc3ccc(O)cc13)-c1cc3c(c(=O)n1C2)COC(=O)[C@]3(O)CC + CC(CO)NC(=O)c1cc(-c2ccc(Cl)cc2)nn(-c2cnn(C)c2)c1=O",
    "viability, T/C": "79%"
  }
]

**Query** Consider the compound CC(C)CC(NC(=O)C(Cc1ccccc1)NC(=O)c1cnccn1)B(O)O (stereo not drawn) + Cc1cncc(-c2nc(NCCc3c[nH]c4ccccc34)c3ncn(C(C)C)c3n2)c1 . State its measured viability, T/C.
**Result** 113%
